# credit: PubChem BioAssay AID624204

tested on: Sentrin-specific protease 1 (Homo sapiens) (UniProt Q9P0U3)
Sequence (Q9P0U3 419-644 limits assumed): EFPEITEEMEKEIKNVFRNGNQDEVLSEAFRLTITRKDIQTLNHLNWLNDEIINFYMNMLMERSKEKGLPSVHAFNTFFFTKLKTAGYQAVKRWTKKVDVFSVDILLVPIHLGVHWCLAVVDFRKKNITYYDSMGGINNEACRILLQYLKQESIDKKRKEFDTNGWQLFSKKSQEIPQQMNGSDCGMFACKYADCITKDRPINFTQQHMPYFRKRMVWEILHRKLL
measurement notes: blockers of SENP1 SUMO protease activity – biochemical, FRET, uHTS, primary screen (AID 624204);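 also: 0% = enzyme with DMSO and 100% = no enzyme wells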
run conditions: recombinant SENP1 catalytic domain, CyPet-SUMO1-YPet FRET cleavage; at 10 µM; stronger effect = higher value
In all, about 360,000 compounds went through this assay and about 770 (0.21%) were called active. Many of the other results were omitted from the sample, so actives are more common in it than they were.
readout kind: inhibition (%)
Give just the numeric value; % need not be written.

Example compounds with recorded inhibition:
{"compound": "Cn1c(N)cc(=O)n(C)c1=S", "recorded measurement": -0.927}
{"compound": "Nn1c(SCC(=O)Nc2nccs2)nncc1=O", "recorded measurement": 2.89}
{"compound": "CC1(C(=O)NCc2ccccc2)CSCC(=O)N1CCCn1ccnc1 (stereo unspecified)", "recorded measurement": 0.15}
{"compound": "c1coc(-c2nc3nc4ccccc4n3nc2-c2ccco2)c1", "recorded measurement": 86.8}

Entry Cc1nn(-c2ccccc2)c(CC(C)(C)C(=O)O)c1C(=O)O , inhibition reported as 1.05

The value of inhibition measured for the compound COc1cc(Br)cc(/C=N/c2ncn[nH]2)c1O turned out to be 10.2

// recorded inhibition for COc1ccc(C(=O)OC(C)C(=O)NC2CCCC2)cc1S(=O)(=O)N1CCOCC1 (stereo unspecified) : 2.06

What the record says about C[C@@H]1C[C@@H]2O[C@H]2/C=C\C=C\C(=O)Cc2c(Cl)c(O)cc(O)c2C(=O)O1 : inhibition is -2.26

Form field inhibition, entry Cc1cccc(N(C(=O)Cc2cccs2)C(C(=O)NCc2ccco2)c2ccncc2)c1 (stereo unspecified) : -0.142

So for N#Cc1ccc(C(C(=O)NCc2ccccc2)n2c(=O)c(-c3ccco3)nc3ccccc32)cc1 (stereo unspecified) , the logged inhibition turned out to be -62.9

// sample CCOc1ccc(-c2c(C)n([O-])c3c([n+]2=O)CCCC3)cc1 , its inhibition was 0.993
